Assign half-life at 0.5 µM to each entry below.
# experiment: human metabolic stability half-life assay
# condition.notes: microsomes, pH 7.4, HLM (t1/2, min), human liver microsomes, CYP-mediated (NADPH-dependent), 0.5 μM compound, 45 min time course, some values are an average of N experiments
Numeric answer only, unit min assumed.

*Q* Entry COc1cccc(C2=N[C@H](NC(=O)[C@H](CCC(F)(F)F)[C@H](CC3CC3)C(N)=O)C(=O)Nc3c(F)cccc32)c1 has what half-life at 0.5 µM?
*A* 32

*Q* So what's the measured half-life at 0.5 µM for this one? COc1cccc2c1NC(=O)[C@@H](NC(=O)[C@H](CCC(F)(F)F)[C@H](CC1CC1)C(N)=O)N=C2c1cccc(C)c1
*A* 52

*Q* # lookup: half-life at 0.5 µM of Cc1cccc(C2=N[C@H](NC(=O)[C@H](CCC(F)(F)F)[C@H](CC3CC3)C(N)=O)C(=O)Nc3c(F)cccc32)c1
*A* 56

*Q* Request the reported half-life at 0.5 µM associated with NC(=O)[C@@H](CC1CC1)[C@@H](CCC(F)(F)F)C(=O)N[C@H]1N=C(c2ccccc2)c2cccc(F)c2NC1=O
*A* 85
